Target Desc: 5-HT2B receptors (Homo sapiens, UniProt P41595)
Sequence (P41595 whole entry): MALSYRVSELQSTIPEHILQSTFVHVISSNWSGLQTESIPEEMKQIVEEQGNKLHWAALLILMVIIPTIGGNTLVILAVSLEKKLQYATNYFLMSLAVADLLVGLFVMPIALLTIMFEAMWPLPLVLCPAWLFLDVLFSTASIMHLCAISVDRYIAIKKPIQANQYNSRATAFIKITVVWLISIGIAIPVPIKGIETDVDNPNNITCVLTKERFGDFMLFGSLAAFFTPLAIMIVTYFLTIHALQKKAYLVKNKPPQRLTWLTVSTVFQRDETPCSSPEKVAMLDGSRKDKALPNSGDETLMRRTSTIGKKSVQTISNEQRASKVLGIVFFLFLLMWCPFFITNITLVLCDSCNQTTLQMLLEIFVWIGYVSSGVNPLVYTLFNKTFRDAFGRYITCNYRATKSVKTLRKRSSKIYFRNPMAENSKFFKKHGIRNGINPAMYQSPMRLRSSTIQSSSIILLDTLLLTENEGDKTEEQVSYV
Method: Functional assay of IPs accumulation at human 5-HT2B receptors
Format: cell-based
pEC50: −log10 of the molar value.
Item-by-item account of pEC50

{"Molecule": "COC(=O)c1c(C(=O)OCCCNC(=O)CCCOc2cc(I)c(OC)cc2CC(C)N)c2cc(F)c(F)cc2c2cc(F)c(F)cc12 (centres unmarked) [12e]", "Target Desc": "5-HT2B receptors (Homo sapiens, UniProt P41595)", "pEC50": 8.02}
{"Molecule": "COc1cc(CC(C)N)c(OCCCCCCC(=O)NCCCNS(=O)(=O)c2cccc3c(N(C)C)cccc23)cc1I (centres unmarked) [10b]", "Target Desc": "5-HT2B receptors (Homo sapiens, UniProt P41595)", "pEC50": 6.61}
{"Molecule": "COC(=O)c1c(C(=O)OCCCNC(=O)CCCOc2cc(I)c(OC)cc2CC(C)N)c2ccccc2c2ccccc12 (centres unmarked) [12d]", "Target Desc": "5-HT2B receptors (Homo sapiens, UniProt P41595)", "pEC50": 7.59}
{"Molecule": "COC(=O)c1c(C(=O)OCCCNC(=O)CCCOc2cc(I)c(OC)cc2CC(C)N)c2cc3c(cc2c2cc4c(cc12)CCC4)CCC3 (centres unmarked) [12f]", "Target Desc": "5-HT2B receptors (Homo sapiens, UniProt P41595)", "pEC50": 7.33}
{"Molecule": "COc1cc(CC(C)N)c(OCCCC(=O)NCCCNc2ccc([N+](=O)[O-])c3nonc23)cc1I (centres unmarked) [12b]", "Target Desc": "5-HT2B receptors (Homo sapiens, UniProt P41595)", "pEC50": 8.49}
